// reported residual activity per item
Biological target: NTRK1 (human)
Assay: radiometric filter-binding kinase assay, Kinase HotSpot
Details: compound 0.5 µM; ATP 10 µM
Answer format: numeric, % implied, no suffix.

Examples with their reported residual activity follow.
CC(C)c1nn(-c2c(Cl)cccc2Cl)c2nc(Cc3ccc(OCCO)cc3)nc(O)c12 = 89
O=C(CCCc1ccc(-c2ccccc2F)cc1)Nc1ccc(O)cc1 = 103

In: Looking for the measured residual activity of O=C1Nc2ccccc2/C1=C1/Nc2ccccc2/C1=N\OCCC(O)CO (centres undefined) , can you help?
Out: 3.84

In: Looking for the measured residual activity of CN(C)C[C@H]1CCn2c(c(C3=C(c4cn(C)c5ccccc45)C(=O)NC3=O)c3ccccc32)C1 , can you help?
Out: 108

In: Looking for the measured residual activity of O=C(Nc1cccc(Nc2cc(Nc3cccc(C(F)(F)F)c3)ncn2)c1)C1CC1 , can you help?
Out: 99.6

In: Looking for the measured residual activity of CCN(CC)CCCCN1c2ccccc2Oc2ccc(Cl)cc21 , can you help?
Out: 99.8

In: Looking for the measured residual activity of CN([C@@H](Cc1ccc(OS(=O)(=O)c2cccc3cnccc23)cc1)C(=O)N1CCN(c2ccccc2)CC1)S(=O)(=O)c1cccc2cnccc12 , can you help?
Out: 111

====

Target: CDK1 CCNB1 (human) (UniProt P06493+P14635)
Sequence (P06493 whole entry, looked up): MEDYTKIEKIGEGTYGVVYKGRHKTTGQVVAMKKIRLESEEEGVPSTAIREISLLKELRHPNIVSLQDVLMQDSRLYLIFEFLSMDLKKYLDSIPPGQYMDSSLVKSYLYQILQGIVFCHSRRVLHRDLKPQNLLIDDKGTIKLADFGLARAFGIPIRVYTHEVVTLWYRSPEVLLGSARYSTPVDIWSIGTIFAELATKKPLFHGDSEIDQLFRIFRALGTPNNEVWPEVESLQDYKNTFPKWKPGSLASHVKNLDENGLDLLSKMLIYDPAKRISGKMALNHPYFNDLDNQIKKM
Sequence (P14635 whole entry, looked up): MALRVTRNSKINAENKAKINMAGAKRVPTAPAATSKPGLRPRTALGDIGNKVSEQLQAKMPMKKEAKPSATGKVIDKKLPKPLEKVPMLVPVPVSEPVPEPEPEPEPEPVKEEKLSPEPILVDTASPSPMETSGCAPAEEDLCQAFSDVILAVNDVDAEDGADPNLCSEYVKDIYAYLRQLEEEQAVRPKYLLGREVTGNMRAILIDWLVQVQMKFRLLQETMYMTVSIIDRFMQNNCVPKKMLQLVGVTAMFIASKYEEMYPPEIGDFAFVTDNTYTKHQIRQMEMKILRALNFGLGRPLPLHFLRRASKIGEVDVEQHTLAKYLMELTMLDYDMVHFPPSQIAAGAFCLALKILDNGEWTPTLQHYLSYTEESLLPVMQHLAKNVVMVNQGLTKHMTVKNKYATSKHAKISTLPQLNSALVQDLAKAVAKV
Assay: radiometric filter-binding kinase assay, Kinase HotSpot
Conditions: compound 0.5 µM; ATP 10 µM
Reported Metric: residual activity (%)
Answer format: numeric, % implied, no suffix.

Examples with their reported residual activity follow.
Nc1nnc2[nH]c3ccccc3nc1-2 = 79.6
O=C(CCCc1ccc(-c2ccccc2F)cc1)Nc1ccc(O)cc1 = 102
c1cc(-c2cnn3cc(-c4ccc(OCCN5CCCCC5)cc4)cnc23)ccn1 = 79.3

In: # value lookup — system CDK1 CCNB1 (human) (UniProt P06493+P14635), readout residual activity, item CN([C@@H](Cc1ccc(OS(=O)(=O)c2cccc3cnccc23)cc1)C(=O)N1CCN(c2ccccc2)CC1)S(=O)(=O)c1cccc2cnccc12
Out: 108

In: # value lookup — system CDK1 CCNB1 (human) (UniProt P06493+P14635), readout residual activity, item CC(=O)O/N=C1\C(=C2\C(=O)Nc3cc(Br)ccc32)Nc2ccccc21
Out: 79.3

In: # value lookup — system CDK1 CCNB1 (human) (UniProt P06493+P14635), readout residual activity, item O=C1Cc2c([nH]c3ccc(Br)cc23)-c2ccccc2N1
Out: 80.6

In: # value lookup — system CDK1 CCNB1 (human) (UniProt P06493+P14635), readout residual activity, item O=C(Nc1cccc(Nc2cc(Nc3cccc(C(F)(F)F)c3)ncn2)c1)C1CC1
Out: 96.4

====

// reported residual activity per item
Target: IGF1R (human) (UniProt P08069)
Sequence (P08069 whole entry, looked up): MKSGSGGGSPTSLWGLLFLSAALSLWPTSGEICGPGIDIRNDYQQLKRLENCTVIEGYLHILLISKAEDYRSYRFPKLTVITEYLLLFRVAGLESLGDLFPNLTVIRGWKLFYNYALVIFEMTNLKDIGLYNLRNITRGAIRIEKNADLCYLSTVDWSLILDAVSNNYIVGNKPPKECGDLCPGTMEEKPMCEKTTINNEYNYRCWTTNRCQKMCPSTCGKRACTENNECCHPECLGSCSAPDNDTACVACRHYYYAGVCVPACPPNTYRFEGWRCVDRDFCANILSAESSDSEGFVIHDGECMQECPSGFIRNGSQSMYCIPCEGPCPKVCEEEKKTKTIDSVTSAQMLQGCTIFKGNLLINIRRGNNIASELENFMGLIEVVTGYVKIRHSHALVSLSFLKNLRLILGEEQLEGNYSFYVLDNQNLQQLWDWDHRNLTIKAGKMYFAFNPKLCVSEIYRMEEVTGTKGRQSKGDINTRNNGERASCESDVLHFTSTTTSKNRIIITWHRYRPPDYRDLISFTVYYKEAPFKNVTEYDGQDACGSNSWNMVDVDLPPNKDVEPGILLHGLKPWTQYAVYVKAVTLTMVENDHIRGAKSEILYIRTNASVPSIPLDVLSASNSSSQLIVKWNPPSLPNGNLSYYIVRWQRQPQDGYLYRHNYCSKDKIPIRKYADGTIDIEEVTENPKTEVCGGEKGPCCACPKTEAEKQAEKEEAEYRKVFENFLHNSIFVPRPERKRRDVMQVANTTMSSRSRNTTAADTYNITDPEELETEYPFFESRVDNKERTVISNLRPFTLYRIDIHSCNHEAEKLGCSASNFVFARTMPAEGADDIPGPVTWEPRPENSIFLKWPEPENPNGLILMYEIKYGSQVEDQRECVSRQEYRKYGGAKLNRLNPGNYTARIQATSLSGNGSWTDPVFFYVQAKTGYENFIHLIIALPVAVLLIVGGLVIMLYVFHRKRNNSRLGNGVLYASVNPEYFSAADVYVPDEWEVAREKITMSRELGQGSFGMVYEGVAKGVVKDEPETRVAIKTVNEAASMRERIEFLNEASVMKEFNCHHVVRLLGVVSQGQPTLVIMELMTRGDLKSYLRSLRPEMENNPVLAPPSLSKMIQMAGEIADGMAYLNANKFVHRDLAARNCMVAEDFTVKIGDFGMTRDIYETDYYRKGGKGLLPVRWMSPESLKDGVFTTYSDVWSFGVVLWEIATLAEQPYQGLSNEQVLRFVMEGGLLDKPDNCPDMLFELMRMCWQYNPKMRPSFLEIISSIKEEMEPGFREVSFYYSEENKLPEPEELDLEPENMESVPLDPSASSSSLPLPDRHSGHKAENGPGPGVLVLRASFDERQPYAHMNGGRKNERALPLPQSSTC
Test: radiometric filter-binding kinase assay, Kinase HotSpot
Details: compound 0.5 µM; ATP 10 µM
Answer format: numeric, % implied, no suffix.

Examples with their reported residual activity follow.
O=C(Nc1cccc(Nc2cc(Nc3cccc(C(F)(F)F)c3)ncn2)c1)C1CC1 = 105
CCn1cnc2c(Nc3cccc(Cl)c3)nc(N[C@@H]3CCCC[C@@H]3N)nc21 = 51.8

// moving on: another record for residual activity
In: Looking for the measured residual activity of COc1cc2ncnc(N3CCN(C(=O)Nc4ccc(Oc5ccccc5)cc4)CC3)c2cc1OC , can you help?
Out: 103

====

Target: UniProtKB Q9UBS0
Sequence (Q9UBS0 whole entry, looked up): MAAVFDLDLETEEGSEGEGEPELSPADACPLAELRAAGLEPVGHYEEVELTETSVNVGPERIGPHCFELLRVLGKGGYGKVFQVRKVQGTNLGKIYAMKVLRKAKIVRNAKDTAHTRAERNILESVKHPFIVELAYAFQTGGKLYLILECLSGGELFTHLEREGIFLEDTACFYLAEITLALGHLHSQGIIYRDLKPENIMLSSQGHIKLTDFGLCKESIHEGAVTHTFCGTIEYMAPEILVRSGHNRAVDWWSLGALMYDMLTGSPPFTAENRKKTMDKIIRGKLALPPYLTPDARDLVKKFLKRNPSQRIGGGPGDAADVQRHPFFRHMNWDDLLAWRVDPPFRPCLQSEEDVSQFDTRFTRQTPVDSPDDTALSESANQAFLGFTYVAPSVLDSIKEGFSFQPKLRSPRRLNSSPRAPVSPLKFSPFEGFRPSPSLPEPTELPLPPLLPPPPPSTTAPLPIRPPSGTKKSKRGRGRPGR
Assay: radiometric filter-binding kinase assay, Kinase HotSpot
Conditions: compound 0.5 µM; ATP 10 µM
// reported residual activity per item
Answer format: numeric, % implied, no suffix.

Nc1nccc(-c2c(-c3ccc(F)cc3)ncn2C2CCNCC2)n1 = 90.9
COc1cc2ncc(-c3ccccc3)nc2cc1OC = 104
O=C1Cc2c([nH]c3ccc(Br)cc23)-c2ccccc2N1 = 99.4

In: # value lookup — system UniProtKB Q9UBS0, readout residual activity, item COc1ccc(CNC(=O)Nc2ncc([N+](=O)[O-])s2)cc1
Out: 93.6

In: # value lookup — system UniProtKB Q9UBS0, readout residual activity, item Cc1nc2cc3nc(-c4cccs4)cnc3cc2n1C
Out: 98

====

Target: PIM1 (human) (UniProt P11309)
Sequence (P11309 whole entry, looked up): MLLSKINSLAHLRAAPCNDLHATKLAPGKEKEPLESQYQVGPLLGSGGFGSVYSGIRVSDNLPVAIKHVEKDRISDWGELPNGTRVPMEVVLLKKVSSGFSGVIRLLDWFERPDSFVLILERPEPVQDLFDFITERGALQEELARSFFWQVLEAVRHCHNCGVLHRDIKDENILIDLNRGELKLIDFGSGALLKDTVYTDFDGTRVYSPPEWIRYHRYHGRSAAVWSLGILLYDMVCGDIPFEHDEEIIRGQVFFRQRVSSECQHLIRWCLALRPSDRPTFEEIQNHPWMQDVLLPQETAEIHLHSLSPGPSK
Assay: radiometric filter-binding kinase assay, Kinase HotSpot
Conditions: compound 0.5 µM; ATP 10 µM
// reported residual activity per item
Answer format: numeric, % implied, no suffix.

Examples with their reported residual activity follow.
CC(C)c1nn(-c2c(Cl)cccc2Cl)c2nc(Cc3ccc(OCCO)cc3)nc(O)c12 = 99
Nc1nccc(-c2c(-c3ccc(F)cc3)ncn2C2CCNCC2)n1 = 97
O=C(O)/C=C/c1cc(Br)c(Br)c(Br)c1Br = 16.2
O=C1Cc2c([nH]c3ccc(Br)cc23)-c2ccccc2N1 = 96.8
O=C1NC(=O)/C(=C\c2ccc3nccnc3c2)S1 = 61.7

In: Looking for the measured residual activity of O=C1NC(=O)C(c2cn(CCCO)c3ncccc23)=C1c1cnccn1 , can you help?
Out: 43.9

In: Looking for the measured residual activity of COc1cc2ncc(-c3ccccc3)nc2cc1OC , can you help?
Out: 95.9

In: Looking for the measured residual activity of O=C(CCCc1ccc(-c2ccccc2F)cc1)Nc1ccc(O)cc1 , can you help?
Out: 97.9

In: Looking for the measured residual activity of O=C1NC(=O)C(c2c[nH]c3ccccc23)=C1c1c[nH]c2ccccc12 , can you help?
Out: 17.2

====

Biological target: DDR2 (human)
Assay: radiometric filter-binding kinase assay, Kinase HotSpot
Conditions: compound 0.5 µM; ATP 10 µM
// reported residual activity per item
Answer format: numeric, % implied, no suffix.

Examples with their reported residual activity follow.
COc1ccc(OC)c2c(=S)c3ccccc3[nH]c12 = 97.1
Nc1nccc(-c2c(-c3ccc(F)cc3)ncn2C2CCNCC2)n1 = 107
Cc1nc2cc3nc(-c4cccs4)cnc3cc2n1C = 108

In: Looking for the measured residual activity of O=C1NC(=O)/C(=C\c2ccc3nccnc3c2)S1 , can you help?
Out: 93.4

In: Looking for the measured residual activity of CN([C@@H](Cc1ccc(OS(=O)(=O)c2cccc3cnccc23)cc1)C(=O)N1CCN(c2ccccc2)CC1)S(=O)(=O)c1cccc2cnccc12 , can you help?
Out: 96.9

In: Looking for the measured residual activity of CC(=O)O/N=C1\C(=C2\C(=O)Nc3cc(Br)ccc32)Nc2ccccc21 , can you help?
Out: 89.8

In: Looking for the measured residual activity of Nc1nnc2[nH]c3ccccc3nc1-2 , can you help?
Out: 94.6

====

Biological target: MST1R (human) (UniProt Q04912)
Sequence (Q04912 whole entry, looked up): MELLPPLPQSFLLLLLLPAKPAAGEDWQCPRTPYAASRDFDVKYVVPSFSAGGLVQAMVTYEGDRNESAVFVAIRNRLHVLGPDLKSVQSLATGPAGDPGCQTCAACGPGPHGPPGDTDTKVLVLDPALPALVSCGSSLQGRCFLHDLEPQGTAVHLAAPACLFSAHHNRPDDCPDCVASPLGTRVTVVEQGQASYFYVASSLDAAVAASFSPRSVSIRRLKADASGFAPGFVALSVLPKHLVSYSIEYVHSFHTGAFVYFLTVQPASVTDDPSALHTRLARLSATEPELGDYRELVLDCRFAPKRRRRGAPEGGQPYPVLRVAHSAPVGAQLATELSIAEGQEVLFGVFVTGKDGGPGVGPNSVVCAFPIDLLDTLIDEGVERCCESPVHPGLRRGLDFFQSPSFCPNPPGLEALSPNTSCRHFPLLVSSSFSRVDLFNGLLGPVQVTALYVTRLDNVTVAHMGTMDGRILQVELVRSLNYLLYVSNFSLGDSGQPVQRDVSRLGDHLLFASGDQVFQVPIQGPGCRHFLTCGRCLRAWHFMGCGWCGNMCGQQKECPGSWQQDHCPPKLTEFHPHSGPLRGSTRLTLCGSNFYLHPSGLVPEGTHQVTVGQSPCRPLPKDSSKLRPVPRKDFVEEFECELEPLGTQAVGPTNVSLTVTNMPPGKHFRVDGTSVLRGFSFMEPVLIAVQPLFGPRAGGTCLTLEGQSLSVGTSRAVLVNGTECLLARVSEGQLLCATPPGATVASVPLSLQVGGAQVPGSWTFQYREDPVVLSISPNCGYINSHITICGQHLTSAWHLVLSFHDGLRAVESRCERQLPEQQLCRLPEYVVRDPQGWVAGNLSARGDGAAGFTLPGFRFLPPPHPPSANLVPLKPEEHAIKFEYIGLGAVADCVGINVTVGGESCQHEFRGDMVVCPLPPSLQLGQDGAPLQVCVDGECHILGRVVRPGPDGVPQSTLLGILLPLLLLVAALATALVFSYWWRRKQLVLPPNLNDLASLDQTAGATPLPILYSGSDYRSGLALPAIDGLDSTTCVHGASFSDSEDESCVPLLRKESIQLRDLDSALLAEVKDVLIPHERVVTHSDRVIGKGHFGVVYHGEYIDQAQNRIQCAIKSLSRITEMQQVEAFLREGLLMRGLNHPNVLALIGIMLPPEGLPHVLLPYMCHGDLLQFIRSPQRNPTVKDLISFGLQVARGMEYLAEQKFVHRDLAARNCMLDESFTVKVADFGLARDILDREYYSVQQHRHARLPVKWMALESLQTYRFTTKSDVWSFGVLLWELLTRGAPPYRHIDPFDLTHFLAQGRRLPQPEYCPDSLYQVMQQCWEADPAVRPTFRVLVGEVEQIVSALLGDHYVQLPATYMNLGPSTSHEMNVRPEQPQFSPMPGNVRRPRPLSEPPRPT
Assay: radiometric filter-binding kinase assay, Kinase HotSpot
Conditions: compound 0.5 µM; ATP 10 µM
Reported Metric: residual activity (%)
Answer format: numeric, % implied, no suffix.

CCN(CC)CCCCN1c2ccccc2Oc2ccc(Cl)cc21 = 112

In: Looking for the measured residual activity of O=C1Nc2ccccc2/C1=C1/Nc2ccccc2/C1=N\OCCC(O)CO (centres undefined) , can you help?
Out: 101

In: Looking for the measured residual activity of CC(C)c1nn(-c2c(Cl)cccc2Cl)c2nc(Cc3ccc(OCCO)cc3)nc(O)c12 , can you help?
Out: 97.5

In: Looking for the measured residual activity of CN(C)C[C@H]1CCn2c(c(C3=C(c4cn(C)c5ccccc45)C(=O)NC3=O)c3ccccc32)C1 , can you help?
Out: 98.3

In: Looking for the measured residual activity of O=C(CCCc1ccc(-c2ccccc2F)cc1)Nc1ccc(O)cc1 , can you help?
Out: 106

In: Looking for the measured residual activity of O=C1Nc2ccccc2/C1=C1\Nc2ccccc2\C1=N/O , can you help?
Out: 103

====

// reported residual activity per item
Molecular target: CSNK1G2 (human)
Assay: radiometric filter-binding kinase assay, Kinase HotSpot
Settings: compound 0.5 µM; ATP 10 µM

CC(=O)O/N=C1\C(=C2\C(=O)Nc3cc(Br)ccc32)Nc2ccccc21 = 89.7%
O=C1Nc2ccccc2/C1=C1\Nc2ccccc2\C1=N/O = 89.4%
O=C1NC(=O)C(c2cn(CCCO)c3ncccc23)=C1c1cnccn1 = 66%
O=C1NC(=O)/C(=C\c2ccc3nccnc3c2)S1 = 83.4%

// moving on: another record for residual activity
In: Looking for the measured residual activity of COc1ccc(CNC(=O)Nc2ncc([N+](=O)[O-])s2)cc1 , can you help?
Out: 100%

====

// reported residual activity per item
Biological target: NEK6 (human)
Experiment: radiometric filter-binding kinase assay, Kinase HotSpot
Settings: compound 0.5 µM; ATP 10 µM
Answer format: numeric, % implied, no suffix.

Examples with their reported residual activity follow.
Oc1ccc(Nc2nc(-c3ccc(Cl)cc3)cs2)cc1 = 95.2
COc1cc2ncc(-c3ccccc3)nc2cc1OC = 93.8

// moving on: another record for residual activity
In: Looking for the measured residual activity of COc1cc2ncnc(N3CCN(C(=O)Nc4ccc(Oc5ccccc5)cc4)CC3)c2cc1OC , can you help?
Out: 103

Hey, just so you know, these numbers are from the kinase profiling compilation of Christmann-Franck et al. (2016).
